The following molecules are shown together with reported Symptom Class values.
- Test system: Arabidopsis thaliana plants
- protocol: SOA1 phenotypic analysis of herbicide-treated plants
- Format: in vivo
- conditionSet: three-week-old plants, foliar spray
No unit in the answer, please; the number alone is enough.

Noted for C[n+]1ccc(-c2cc[n+](C)cc2)cc1 [Paraquat] : its Symptom Class reads 7

New cases:
Noted for CN(C)C(=O)Nc1ccc(Cl)c(Cl)c1 [Diuron] : its Symptom Class reads 7

Noted for CP(=O)(O)CCC(N)C(=O)O (stereo not drawn) [Glufosinate] : its Symptom Class reads 3

Noted for O=C(O)COc1ccc(Cl)cc1Cl [2,4-D] : its Symptom Class reads 5

Noted for c1cc[n+]2c(c1)-c1cccc[n+]1CC2 [Diquat] : its Symptom Class reads 7

Noted for O=C(O)CNCP(=O)(O)O [Glyphosate] : its Symptom Class reads 4
